Measured values drawn from patent US9328138B2 for this set.

target: HCV genotype 1b (BK) NS3 modified enzyme with a R155K mutation (Hepatitis C virus genotype 1b, UniProt P26663, R1181K); construct: HCV genotype 1b (BK) NS3 modified enzyme; assay: HCV NS3 protease time-resolved fluorescence (TRF) assay, genotype 1b R155K; type: biochemical; conditions: Ki 1b R155K, first of two values printed in the cell (not explained)
Structures can show the parent of a compound that is named as a salt.
So I've got a bunch of compounds here, and I need their Ki values.
Answers are plain numbers, in nM.

# compound, result
measured = [
    ("C=C[C@@H]1CC1(NC(=O)[C@@H]1C[C@@H]2CN1C(=O)[C@H](C(C)(C)C)NC(=O)O[C@@H]1C[C@H]1CCCCCc1c(nc3ccccc3c1OC1C3CNCC1COC3)O2)C(=O)NS(=O)(=O)C1(C)CC1 (single isomer, unassigned) [Example 259, trifluoroacetate]", 0.03),
    ("C=C[C@@H]1C[C@]1(NC(=O)[C@@H]1C[C@@H]2CN1C(=O)[C@H](C1CCCCC1)NC(=O)O[C@@H]1C[C@H]1CCCCCc1c(nc3ccccc3c1OC1CCN(CC(F)(F)F)CC1)O2)C(=O)NS(=O)(=O)C1(C)CC1 [Example 236, formate]", 0.33),
    ("C=C[C@@H]1C[C@]1(NC(=O)[C@@H]1C[C@@H]2CN1C(=O)[C@H](C(C)(C)C)NC(=O)O[C@@H]1C[C@H]1CCCCCc1c(nc3ccccc3c1-c1cccnc1)O2)C(=O)NS(=O)(=O)C1(C)CC1 [Example 246]", 1.02),
    ("C=C[C@@H]1C[C@]1(NC(=O)[C@@H]1C[C@@H]2CN1C(=O)[C@H](C1CCCCC1)NC(=O)O[C@@H]1C[C@H]1CCCCCc1c(nc3ccccc3c1OC1CCN(CCOC)CC1)O2)C(=O)NS(=O)(=O)C1(C)CC1 [Example 237, formate]", 0.013),
    ("C=C[C@@H]1C[C@]1(NC(=O)[C@@H]1C[C@@H]2CN1C(=O)[C@H](C(C)(C)C)NC(=O)O[C@@H]1C[C@H]1CCCCCc1c(nc3ccccc3c1-c1ccccn1)O2)C(=O)NS(=O)(=O)C1(C)CC1 [Example 245]", 0.546),
    ("C=C[C@@H]1C[C@]1(NC(=O)[C@@H]1C[C@@H]2CN1C(=O)[C@H](C(C)(C)C)NC(=O)O[C@@H]1C[C@H]1CCCCCc1c(nc3ccccc3c1-c1ccncc1)O2)C(=O)NS(=O)(=O)C1(C)CC1 [Example 244]", 1.59),
    ("C=C[C@@H]1C[C@]1(NC(=O)[C@@H]1C[C@@H]2CN1C(=O)[C@H](C1CCCCC1)NC(=O)O[C@@H]1C[C@H]1CCCCCc1c(nc3ccccc3c1OC1CC3COCC(C1)N3)O2)C(=O)NS(=O)(=O)C1(C)CC1 (some centres unmarked) [Example 288]", 0.018),
    ("C=C[C@@H]1C[C@]1(NC(=O)[C@@H]1C[C@@H]2CN1C(=O)[C@H](C1CCCCC1)NC(=O)O[C@@H]1C[C@H]1CCCCCc1c(nc3ccccc3c1OC1CC3COCC(C1)N3CC)O2)C(=O)NS(=O)(=O)C1(C)CC1 (some centres unmarked) [Example 290, formate]", 0.012),
    ("C=C[C@@H]1C[C@]1(NC(=O)[C@@H]1C[C@@H]2CN1C(=O)[C@H](C1CCCCC1)NC(=O)O[C@@H]1C[C@H]1CCCCCc1c(nc3ccccc3c1OC1CCN(CCF)CC1)O2)C(=O)NS(=O)(=O)C1(C)CC1 [Example 272, formate]", 0.015),
    ("C=C[C@@H]1C[C@]1(NC(=O)[C@@H]1C[C@@H]2CN1C(=O)[C@H](C1CCCCC1)NC(=O)O[C@@H]1C[C@H]1CCCCCc1c(nc3ccccc3c1OC1CCCN(C)C1)O2)C(=O)NS(=O)(=O)C1(C)CC1 (some centres unmarked) [Example 291, formate]", 0.01),
]

Then this compound:
Query: Given the entry C=C[C@@H]1C[C@]1(NC(=O)[C@@H]1C[C@@H]2CN1C(=O)[C@H](C1CCCCC1)NC(=O)O[C@@H]1C[C@H]1CCCCCc1c(nc3ccccc3c1OC1CC3CCC(C1)N3CCOC)O2)C(=O)NS(=O)(=O)C1(C)CC1 (some centres unmarked) [Example 284] , report its measured Ki.
Result: 0.023

###

I'd appreciate it if you could supply pKi values for the items below.
target: UniProt Q81258; assay: HCV NS3 protease time-resolved fluorescence (TRF) assay, genotype 3a; format: biochemical; conditions: Ki 3a
Answers are plain numbers, as −log10 of the molar value.

# map each compound to its pKi
1. C=C[C@@H]1C[C@]1(NC(=O)[C@@H]1C[C@@H]2CN1C(=O)[C@H](C(C)(C)C)NC(=O)O[C@@H]1C[C@H]1CCCCCc1c(nc3ccccc3c1OCCCN1CCCC1)O2)C(=O)NS(=O)(=O)C1(C)CC1
2. C=C[C@@H]1C[C@]1(NC(=O)[C@@H]1C[C@@H]2CN1C(=O)[C@H](C(C)(C)C)NC(=O)O[C@@H]1CCC[C@H]1CCCCCc1c(nc3ccccc3c1OCCN1CCOCC1)O2)C(=O)NS(=O)(=O)N1CCC1
3. C=C[C@@H]1C[C@]1(NC(=O)[C@@H]1C[C@@H]2CN1C(=O)[C@H](C(C)(C)C)NC(=O)O[C@@H]1C[C@H]1CCCCCc1c(nc3ccccc3c1OCCCN1CCC1)O2)C(=O)NS(=O)(=O)C1(C)CC1
4. C=C[C@@H]1C[C@]1(NC(=O)[C@@H]1C[C@@H]2CN1C(=O)[C@H](C1CCCC1)NC(=O)O[C@@H]1CCC[C@H]1CC/C=C/Cc1c(nc3ccccc3c1OCCCN1CCCC1)O2)C(=O)NS(=O)(=O)C1(C)CC1

Result:
9.03
7.64
9.00
9.35

###

What log10 of Ki was measured for each of the following?
target: HCV genotype 1b (BK) NS3 modified enzyme with a R155K mutation (Hepatitis C virus genotype 1b, UniProt P26663, R1181K); construct: HCV genotype 1b (BK) NS3 modified enzyme; experiment: HCV NS3 protease time-resolved fluorescence (TRF) assay, genotype 1b R155K; type: biochemical; settings: Ki 1b R155K, genotype 1b (BK) NS3 R155K; single value
Please be aware that the numbers have been log10-transformed from Ki in nM.

// below: answered compounds
# compound, result
data = [
    ("C=C[C@@H]1C[C@]1(NC(=O)[C@@H]1C[C@@H]2CN1C(=O)[C@H](C(C)(C)C)NC(=O)O[C@@H]1C[C@H]1CCCCCc1c(nc3ccccc3c1OCCCN1CCCC(F)C1)O2)C(=O)NS(=O)(=O)C1(C)CC1 (some centres unmarked) [Example 158]", -0.72),
    ("C=C[C@@H]1C[C@]1(NC(=O)[C@@H]1C[C@@H]2CN1C(=O)[C@H](C(C)(C)C)NC(=O)O[C@@H]1C[C@H]1CCCCCc1c(nc3ccccc3c1OC1CCN(C3CC3)CC1)O2)C(=O)NS(=O)(=O)C1(C)CC1 [Example 220]", -0.54),
    ("C=C[C@@H]1C[C@]1(NC(=O)[C@@H]1C[C@@H]2CN1C(=O)[C@H](C(C)(C)C)NC(=O)O[C@@H]1C[C@H]1CCCCCc1c(nc3ccccc3c1OCC1CCN(C)C1)O2)C(=O)NS(=O)(=O)C1(C)CC1 (some centres unmarked) [Example 141]", -1.18),
    ("COc1c2c(nc3ccccc13)O[C@@H]1C[C@H]3C(=O)N[C@]4(C(=O)NS(=O)(=O)C5(C)CC5)C[C@H]4/C=C\\CCCCC[C@H](NC(=O)O[C@@H]4C[C@H]4CCCCC2)C(=O)N3C1 [Example 305]", -1.18),
    ("C=C[C@@H]1C[C@]1(NC(=O)[C@@H]1C[C@@H]2CN1C(=O)[C@H](C(C)(C)C)NC(=O)O[C@@H]1C[C@H]1CCCCCc1c(nc3ccccc3c1O[C@@H]1C[C@H]3C[C@@H]1CN3CCOC)O2)C(=O)NS(=O)(=O)C1(C)CC1 [Example 231]", -0.89),
]

Look up log10 of Ki for the entries below, preserving their order.
1. C=C[C@@H]1C[C@]1(NC(=O)[C@@H]1C[C@@H]2CN1C(=O)[C@H](C(C)(C)C)NC(=O)O[C@@H]1C[C@H]1CCCCCc1c(nc3ccccc3c1OC[C@H]1CNCCO1)O2)C(=O)NS(=O)(=O)C1(C)CC1 [Example 221]
2. C=C[C@@H]1C[C@]1(NC(=O)[C@@H]1C[C@@H]2CN1C(=O)[C@H](C(C)(C)C)NC(=O)O[C@@H]1CCC[C@H]1CC/C=C/Cc1c(nc3ccccc3c1OCCCN1CCCCC1)O2)C(=O)NS(=O)(=O)C1(C)CC1 [Example 59]

Result:
[-1.30, -0.96]
